Kindly supply the reported inhibition values for the records listed here.
testedTarget: L-lactate dehydrogenase (Plasmodium falciparum (isolate CDC / Honduras))
testName: PfLDH activity inhibition – cell lysate, 3D7 strain, counter-screen for P. falciparum growth inhibition project (AID 2304);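 note: 0% = vehicle and 100% = reference inhibitor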
conditionInfo: P. falciparum 3D7 crude extract, LDH APAD/NBT absorbance; at 2 µM; stronger effect = higher value
Numbers only, in %.

Some solved cases for reference:
CCC(Cc1cnc2nc(N)nc(N)c2n1)c1ccc(C(=O)O)cc1 (stereo not given)    -2
O=C(Nc1ccc(-c2cccc(-c3nc4ccccc4[nH]3)c2)cc1)N[C@@H]1C[C@H]1c1ccccc1    -2
Fc1ccc2nc(-c3ccc(-c4cccc(CN5CCN(c6ccncc6)CC5)c4)cc3)[nH]c2c1    -3

Quick one: give me inhibition for each item below, same order please.
1. Cc1ccc(C)c(C2CCN(CCCCNC(=O)c3ccc(NC(=O)c4ccc(Cl)cc4)cc3)CC2)c1
2. Nc1c2ccccc2nc2ccc(-c3ccccc3)cc12

# output
7
2
